Experiment: A CellTox Green Cytotoxicity Assay to monitor cytotoxicity in HepG2 cells - 16 hour (AID 1224876); further: nearly all actives have a fitted effect of over 45% in size
Conditions: CellTox Green fluorescence; series mostly up to 76.8 µM
Inconclusive results are not listed. Active and inactive are the calls of the source. The call rests on the fitted dose curve; in most records, active means well fitted activation curve with a large enough effect in the repeat runs; inconclusive means weak or mixed curves; inactive means flat fitted curve, though single readings scatter.
Returns: one label drawn from active, inactive

CC(=O)Nc1ccc(N)cc1    inactive
CN(C(=O)C(Cl)Cl)c1ccc(OC(=O)c2ccco2)cc1    inactive
O=S(=O)(c1ccccc1)c1ccc(Cl)cc1    inactive
Cc1cc2nc3ccc(=[N+](C)C)cc-3sc2cc1N    inactive
Fc1ccccc1[C@@H](F)COC1CCC(Nc2ncnc3[nH]ncc23)CC1 (some centres undefined)    inactive

What outcome does the record of this test show for CCC(C)=O ? inactive

For COc1cc2ncnc(Nc3ccc(F)c(Cl)c3)c2cc1OCCCN1CCOCC1 , which call appears in the assay record? active

Tell me the recorded outcome of this test for CC#N . inactive

What classification did C/C=C(\C)C(=O)OCCC(C)CCC=C(C)C (centres undefined) end up with in this test? inactive

Field: outcome | Entry: CCn1cc(C(=O)O)c(=O)c2cc(F)c(N3CCNCC3)nc21 inactive

Answer briefly: the call reported for NCC1CCCC(CN)C1 (centres undefined) in this assay. inactive

Name the outcome recorded for O=C(CCCCCCC(=O)Nc1ccccc1)NO in the assay. inactive

Query: recorded result category for C=CC(=C)CCCC(C)(C)OC(C)=O in this test inactive

Per the records of this test, what outcome belongs to CCCOCCOCCO ? inactive

Which outcome was entered for the compound CCCCCCOC(=O)CCCCCCCC(=O)OCCCCCC in this test? inactive

Tell me the recorded outcome of this test for CC(N)CN (centres undefined) . inactive

Called result for CN1C(=O)CC(C)(c2ccccc2)C1=O (centres undefined) inactive

Fill in: this test's call for OCCSc1ccccc1 is ___ inactive

// outcome(item) with item = O=[N+]([O-])c1cccc(S(=O)(=O)NCCNS(=O)(=O)c2cccc([N+](=O)[O-])c2)c1 inactive

Please share the test call associated with COc1ccc(C(=O)c2cccc(O)c2)c(OC)c1 . inactive

I would be grateful if you could indicate the recorded call for Oc1ccc(Nc2ccccc2)cc1 . inactive

For O=C(NCCCN1CCOCC1)c1ccc(Cl)cc1 , which call appears in the assay record? inactive

Could you kindly confirm the outcome this assay logged for CCCCCCCCCCCC[N+](C)(C)CCCS(=O)(=O)[O-] ? inactive

Recorded test call requested for CC(=O)Oc1ccc2c(c1)CC[C@@H]1[C@@H]2CC[C@]2(C)[C@@H](O)CC[C@@H]12 inactive

Returns: the outcome recorded for CC(C)(C)C(=O)O in this assay. inactive

Just curious, what result did O=C(Nc1ccccc1)Nc1ccccc1 get here? inactive

# outcome recorded in this test, key = CCCCCCCCSCCO inactive

For Nc1ccc(S(=O)(=O)O)c(N)c1 , what call appears in the results of this test? inactive

Can you look up the reported call for C=CC(=O)NCOCC(C)C for me? inactive

---

Assay: qHTS assay to identify small molecule antagonists of the estrogen receptor alpha (ER-alpha) signaling pathway using the BG1 cell line (AID 743080);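 further: BG1 cells stimulated with 17beta-estradiol alongside compound; nearly all actives have a fitted effect of over 25% in size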
Conditions: BG1Luc4E2 ERE-luciferase antagonist mode, luminescence; series mostly up to 70.3 µM
Records with an inconclusive call do not appear. Active and inactive are the calls of the source. Calls come from the whole dose curve.
Hi there, use one of these labels in your reply, thanks! active, inactive

O=C(CCCN1CCN(c2ccc(F)cc2)CC1)NC1c2ccccc2CSc2ccccc21 (configuration not stated)    inactive

Kindly provide the recorded test outcome for the following molecule: CC1=C(/C=C/C(C)=C\C=C\C(C)=C\C(=O)O)C(C)(C)CCC1 active

Check the results log: what was the call for NC(=O)N(O)[C@@H]1C=C[C@H](Oc2cccc(Oc3ccc(F)cc3)c2)C1 ? active

Assay outcome for O=C(OCCOCCO)c1ccccc1Nc1cccc(C(F)(F)F)c1 : what was it? inactive

Kindly provide the recorded test outcome for the following molecule: CNC(=O)N(c1ccccc1)c1ccccc1 inactive

Assay result, entry CN1CCN(c2c(F)cc3c(=O)c(C(=O)O)cn4c3c2OCN4C)CC1 — outcome? inactive

Recorded test outcome, item c1cc[c]([Bi]([c]2ccccc2)[c]2ccccc2)cc1 inactive

---

Test: qHTS assay to identify small molecule antagonists of the estrogen receptor alpha (ER-alpha) signaling pathway using the BG1 cell line in the presence of 0.1 nM 17-beta-estradiol - cell viability counter screen (AID 1259241); further: nearly all actives have a fitted effect of over 40% in size
Conditions: VM7Luc4E2 (BG1) viability, CellTiter-Fluor protease, 22 h, 0.1 nM estradiol agonist added; series mostly up to 92.4 µM
Records with an inconclusive call do not appear. Calls of active or inactive are those of the source. The call rests on the fitted dose curve; in most records, active means well fitted cell-killing curve with a large enough effect in the repeat runs; inconclusive means weak or mixed curves, or effect the other way; inactive means flat fitted curve, though single readings scatter.
Quantity Measured: activity change, negative = cytotoxicity

C/C(=N/NC(=O)c1ccncc1)C(=O)O    inactive
COC(=O)c1cc(Cl)ccc1NS(=O)(=O)C(F)(F)F    inactive
CC[C@@H]([C@H](C)O)n1ncn(-c2ccc(N3CCN(c4ccc(OC[C@@H]5CO[C@@](Cn6cncn6)(c6ccc(F)cc6F)C5)cc4)CC3)cc2)c1=O    inactive
Cc1cc(O)c2c(O)c3c(O)cccc3cc2c1    inactive
CC(CCc1ccc2c(c1)OCO2)NN (stereo unspecified)    inactive

Please give activity change, negative = cytotoxicity, item by item, for the list that follows.
1. CCCCCCOC(=O)C(C)C
2. CC(CCO)CCc1ccccc1 (stereo unspecified)
3. OC/C(Br)=C(\Br)CO
4. CC(=O)OCC(=O)[C@@]12OC(C)(C)O[C@@H]1C[C@H]1[C@@H]3C[C@H](F)C4=CC(=O)C=C[C@]4(C)[C@@]3(F)[C@@H](O)C[C@@]12C
5. CCc1nn(CCCN2CCN(c3cccc(Cl)c3)CC2)c(=O)n1CCOc1ccccc1
6. O=C(O)c1cccnc1C(=O)O

inactive
inactive
inactive
inactive
inactive
inactive

---

Test: qHTS assay to identify small molecule antagonists of the androgen receptor (AR) signaling pathway - cell viability counter screen (AID 743033; further: nearly all actives have a fitted effect of over 45% in size)
Settings: AR-bla HEK293 viability, CellTiter-Glo luminescence, 16 h; series mostly up to 58.5 µM
Inconclusive results are not listed. The source made the active and inactive calls. Calls come from the whole dose curve; as a rule, active = well fitted cell-killing curve with a large enough effect in the repeat runs; inconclusive = weak or mixed curves; inactive = no such curve, though single readings can be large or run the other way.
The reply should name one outcome from true (1) = active, false (0) = inactive

N#C/C(=C1\SCC(c2ccccc2Cl)S1)n1ccnc1 (stereo not given)    false (0)
ON(Cc1ccccc1)Cc1ccccc1    false (0)
CC1=C(C=O)C(C)(C)CCC1    false (0)
Fc1ccccc1[C@@H](F)COC1CCC(Nc2ncnc3[nH]ncc23)CC1 (stereo not given in full)    true (1)
C=C(C)C(=O)OCCOC(=O)CC(C)=O    false (0)
CO[C@H]1O[C@H](CO)[C@@H](O)[C@H](O)[C@H]1O    false (0)

Which outcome did this test record for the compound Nc1ccc(S(=O)(=O)O)cc1 ? false (0)

Short answer needed: outcome of this test for O=Cc1c(Cl)cccc1Cl ? false (0)

Can you look up the reported call for OC/C(Br)=C(\Br)CO for me? false (0)

Kindly provide the recorded test outcome for the following compound: O=C(O)c1snc(Cl)c1Cl false (0)

GET /call?item= Cc1occc1C(=O)Nc1ccc(C(=O)N2CCC(F)(F)/C(=C\C(=O)N3CCC(N4CCCCC4)CC3)c3ccccc32)cc1 returns the recorded outcome of this test. false (0)

Which outcome did this test record for the compound CC1=C(/C=C/C(C)=C\C=C\C(C)=C\C(=O)O)C(C)(C)CCC1 ? false (0)

Dear all, I need the recorded test outcome for CCCOC(=O)c1ccc(N)cc1 , thank you. false (0)

Please share the test call associated with CCCC(=O)O[C@]1(C(=O)COC(=O)CC)CC[C@H]2[C@@H]3CCC4=CC(=O)CC[C@]4(C)[C@H]3[C@@H](O)C[C@@]21C . false (0)

Which outcome was assigned to Nc1ccc(S(=O)(=O)O)c(N)c1 in this test? false (0)

So what was the verdict on CCCCC(CC)C(=O)OCCOCCOCCOCCOC(=O)C(CC)CCCC (stereo not given) in this test? false (0)

What did this assay record as the result for CC1=NN(c2ccc(C(=O)O)cc2)C(=O)C1 ? false (0)

Tell me the assay call for CO[C@@]12[C@H](COC(N)=O)C3=C(C(=O)C(C)=C(N)C3=O)N1C[C@@H]1N[C@@H]12 please. false (0)

Field: outcome | Entry: C=CC(C)(C)CC(=O)OC false (0)

State the result this test recorded for CCCCCCCCSCCO . false (0)

What classification did COc1cc2c(N3CCN(C(=O)Nc4ccc(OC(C)C)cc4)CC3)ncnc2cc1OCCCN1CCCCC1 end up with in this test? true (1)

Short answer needed: outcome of this test for CC(Cl)C(Cl)Cl (stereo not given) ? false (0)

Which outcome was entered for the compound CCn1cc(C(=O)O)c(=O)c2cc(F)c(N3CCNCC3)nc21 in this test? false (0)

Recorded call for O=C(O)c1cccc(O)c1 ? false (0)

Returns: the outcome recorded for CCCCCC=CCC=CCCCCCCCC(=O)OCC in this assay. false (0)

Query: recorded result category for CCOC(=N)CC(=O)OCC in this test false (0)

GET /call?item= CCCOC(=O)c1ccc(C(=O)OCCC)nc1 returns the recorded outcome of this test. false (0)

Please state the recorded outcome for this compound: CC(CCO)CCc1ccccc1 (stereo not given) false (0)

Which result was noted for this compound in the test: C[N+](C)(C)CCOC(N)=O false (0)

Hi, sorry to bother you, what did the test record for CN(C(=O)C(Cl)Cl)c1ccc(OC(=O)c2ccco2)cc1 ? false (0)

Identify the outcome logged in this assay for the compound shown: C/C=C(\C)C(=O)OCCC(C)CCC=C(C)C (stereo not given) false (0)

Look up the recorded call for CC(C)=CC=O in this test. false (0)
